Collected % LBF Mouse values appear next to each entry.
Assay: Intrinsic clearance (CLint) assay, mouse liver microsomes
Format: in vitro ADME
Details: liver blood flow
Non-standard residues stand in square brackets, D forms with d. Residues, ends and D or L forms follow the SMILES beside them. NMeL = CN[C@@H](CC(C)C)C(=O)O; NMeV = CN[C@H](C(=O)O)C(C)C; dOrn = NCCC[C@@H](N)C(=O)O

molecule	% LBF Mouse
CSCC[C@@H]1NC(=O)[C@@H](CC(C)C)NC(=O)[C@H](CC(C)C)NC(=O)[C@H](Cc2c[nH]c3ccccc23)NC(=O)[C@@H](CCCN)NC(=O)[C@H](CC(N)=O)NC1=O [Compound 8c] (cyclo(L[dL]MN[dOrn]W))	<16.30%
CC(C)C[C@@H]1NC(=O)[C@H](Cc2c[nH]c3ccccc23)NC(=O)[C@@H](CCCN)NC(=O)[C@H](C)NC(=O)[C@H](C(C)C)NC(=O)[C@@H](CC(C)C)NC1=O [Compound 4c] (cyclo(A[dOrn]WL[dL]V))	<16.27%
CC[C@H](C)[C@@H]1NC(=O)[C@H]([C@@H](C)CC)NC(=O)[C@@H](CC(C)C)NC(=O)[C@H](CC(C)C)NC(=O)[C@H](Cc2c[nH]c3ccccc23)NC(=O)[C@@H](CCCN)NC1=O [Compound 12c] (cyclo(II[dOrn]WL[dL]))	<16.39%
CC(C)C[C@H]1NC(=O)[C@H](CC(C)C)N(C)C(=O)[C@H](Cc2c[nH]c3ccccc23)NC(=O)[C@@H](CCCN)NC(=O)[C@H](CC(N)=O)NC(=O)[C@H](C(C)C)N(C)C1=O [Compound 24c] (cyclo(N[dOrn]W[NMeL][dL][NMeV]))	42.0%

Values were extracted from paper PMC5397059.
